Can you tell me normalized growth for the items I'm about to list?
ASSAY_REMARKS: chemical genetic growth profiling, strain panel (AID 1159580);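 also: tested at 20 µM; growth read once vehicle control cultures reached saturation at 30 °C; 1 = growth at the plate median or of vehicle wells; lower values mean less growth of the strain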
ASSAY_CONTEXT: S. cerevisiae deletion strains, growth OD, locus YGL240W, strain doc1, hits give low values
Screen size: about 5,500 compounds; about 2,000 (36%) were called active. Another 18% or so got no clear call; they are omitted. The list shows a part of the results.
Reply with just the number.

Entry under test: CC(=O)O[C@@H]1CC2C(C)(C)C(=O)C=C[C@]2(C)C2CC[C@]3(C)C(=CC(=O)O[C@H]3c3ccoc3)[C@@]21C (some centres undefined) . Its normalized growth was 1

Entry under test: CC(CCC(=O)O)[C@H]1CCC2C3CC[C@@H]4C[C@H](O)CC[C@]4(C)C3C=C[C@@]21C (some centres undefined) . Its normalized growth was 0.982

Entry under test: CC(N=C(NC#N)Nc1ccncc1)C(C)(C)C (centres undefined) . Its normalized growth was 0.945

Entry under test: CC(=O)O[C@@H]1CC2C(C)(C)[C@H](O)C=C[C@]2(C)C2CC[C@]3(C)C(=CC(=O)O[C@H]3c3ccoc3)[C@@]21C (some centres undefined) . Its normalized growth was 0.993

Entry under test: NC1=NCCN1CC(=O)O . Its normalized growth was 1

Entry under test: CC(CCC(=O)O)[C@H]1CCC2C3C(=O)C[C@@H]4CC(=O)CC[C@]4(C)C3CC(=O)[C@@]21C (some centres undefined) . Its normalized growth was 1.01

Entry under test: CC(C)(C)NC[C@H](O)c1ccc(O)c(CO)c1 . Its normalized growth was 1.02

Entry under test: C[C@H](CCC(=O)O)[C@H]1CCC2C3C(=O)CC4CC(=O)CC[C@]4(C)C3CC(=O)[C@@]21C (some centres undefined) . Its normalized growth was 0.948

Entry under test: CC[N+](C)(C)c1cccc(O)c1 . Its normalized growth was 1.03
